Exercise: state measured IC50 for each of the molecules provided.
Target: wild type EGFR in A431 cells (Homo sapiens, UniProt P00533)
Sequence (P00533 25-1210): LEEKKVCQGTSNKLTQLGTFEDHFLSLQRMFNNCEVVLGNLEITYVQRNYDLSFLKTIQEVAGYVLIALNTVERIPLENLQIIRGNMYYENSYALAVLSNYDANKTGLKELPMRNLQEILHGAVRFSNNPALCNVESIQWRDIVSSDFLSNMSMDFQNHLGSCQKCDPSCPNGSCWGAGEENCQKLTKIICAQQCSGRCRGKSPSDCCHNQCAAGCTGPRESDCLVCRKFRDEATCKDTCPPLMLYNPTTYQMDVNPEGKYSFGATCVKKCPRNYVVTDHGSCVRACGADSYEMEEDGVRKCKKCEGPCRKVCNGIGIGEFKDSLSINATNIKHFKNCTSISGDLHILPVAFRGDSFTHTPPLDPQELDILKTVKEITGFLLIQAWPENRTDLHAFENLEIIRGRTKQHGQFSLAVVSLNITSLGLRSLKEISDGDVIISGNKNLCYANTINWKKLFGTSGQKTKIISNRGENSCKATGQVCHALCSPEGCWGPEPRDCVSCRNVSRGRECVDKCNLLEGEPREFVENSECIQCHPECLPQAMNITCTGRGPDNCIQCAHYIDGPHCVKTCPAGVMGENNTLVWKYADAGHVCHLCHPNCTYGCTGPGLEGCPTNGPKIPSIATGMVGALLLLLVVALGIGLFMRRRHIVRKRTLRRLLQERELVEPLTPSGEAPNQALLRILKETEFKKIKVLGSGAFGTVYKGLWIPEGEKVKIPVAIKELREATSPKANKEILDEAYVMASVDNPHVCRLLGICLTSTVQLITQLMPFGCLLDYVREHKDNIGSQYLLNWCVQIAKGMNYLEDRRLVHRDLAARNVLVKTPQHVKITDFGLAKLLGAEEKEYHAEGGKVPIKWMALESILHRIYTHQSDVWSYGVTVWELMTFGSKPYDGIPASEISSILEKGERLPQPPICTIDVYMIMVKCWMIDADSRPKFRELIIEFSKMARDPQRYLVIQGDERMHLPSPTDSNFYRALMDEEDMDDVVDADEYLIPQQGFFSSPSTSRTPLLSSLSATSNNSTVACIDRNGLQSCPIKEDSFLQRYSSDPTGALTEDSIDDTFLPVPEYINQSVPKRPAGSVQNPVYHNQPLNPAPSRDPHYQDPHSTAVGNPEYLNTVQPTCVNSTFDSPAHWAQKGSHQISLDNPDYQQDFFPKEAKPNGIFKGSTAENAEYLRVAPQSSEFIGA
Assay: EGFR wild type cell phosphorylation assay (A431)
Answer with a number only, understood to be in nM.

Q: Give the measured IC50 of [2H]C([2H])([2H])N(CCN(C)c1cc(OC)c(Nc2nccc(-c3cn4c5c(cccc35)CCC4)n2)cc1NC(=O)C=C)C([2H])([2H])[2H] .
Ans: 732

Q: And then [2H]C([2H])([2H])N(C)CCN(C)c1cc(OC)c(Nc2nccc(-c3cn4c5c(cccc35)CCC4)n2)cc1NC(=O)C=C , what is it?
Ans: 730

Q: And then [2H]C([2H])([2H])N(CCN(C)C)c1cc(OC)c(Nc2nccc(-c3cn4c5c(cccc35)CCC4)n2)cc1NC(=O)C=C , what is it?
Ans: 520

====

Target: EGFR (L858R) single mutant (Homo sapiens, UniProt P00533, L858R)
Sequence (P00533 25-1210 L858R): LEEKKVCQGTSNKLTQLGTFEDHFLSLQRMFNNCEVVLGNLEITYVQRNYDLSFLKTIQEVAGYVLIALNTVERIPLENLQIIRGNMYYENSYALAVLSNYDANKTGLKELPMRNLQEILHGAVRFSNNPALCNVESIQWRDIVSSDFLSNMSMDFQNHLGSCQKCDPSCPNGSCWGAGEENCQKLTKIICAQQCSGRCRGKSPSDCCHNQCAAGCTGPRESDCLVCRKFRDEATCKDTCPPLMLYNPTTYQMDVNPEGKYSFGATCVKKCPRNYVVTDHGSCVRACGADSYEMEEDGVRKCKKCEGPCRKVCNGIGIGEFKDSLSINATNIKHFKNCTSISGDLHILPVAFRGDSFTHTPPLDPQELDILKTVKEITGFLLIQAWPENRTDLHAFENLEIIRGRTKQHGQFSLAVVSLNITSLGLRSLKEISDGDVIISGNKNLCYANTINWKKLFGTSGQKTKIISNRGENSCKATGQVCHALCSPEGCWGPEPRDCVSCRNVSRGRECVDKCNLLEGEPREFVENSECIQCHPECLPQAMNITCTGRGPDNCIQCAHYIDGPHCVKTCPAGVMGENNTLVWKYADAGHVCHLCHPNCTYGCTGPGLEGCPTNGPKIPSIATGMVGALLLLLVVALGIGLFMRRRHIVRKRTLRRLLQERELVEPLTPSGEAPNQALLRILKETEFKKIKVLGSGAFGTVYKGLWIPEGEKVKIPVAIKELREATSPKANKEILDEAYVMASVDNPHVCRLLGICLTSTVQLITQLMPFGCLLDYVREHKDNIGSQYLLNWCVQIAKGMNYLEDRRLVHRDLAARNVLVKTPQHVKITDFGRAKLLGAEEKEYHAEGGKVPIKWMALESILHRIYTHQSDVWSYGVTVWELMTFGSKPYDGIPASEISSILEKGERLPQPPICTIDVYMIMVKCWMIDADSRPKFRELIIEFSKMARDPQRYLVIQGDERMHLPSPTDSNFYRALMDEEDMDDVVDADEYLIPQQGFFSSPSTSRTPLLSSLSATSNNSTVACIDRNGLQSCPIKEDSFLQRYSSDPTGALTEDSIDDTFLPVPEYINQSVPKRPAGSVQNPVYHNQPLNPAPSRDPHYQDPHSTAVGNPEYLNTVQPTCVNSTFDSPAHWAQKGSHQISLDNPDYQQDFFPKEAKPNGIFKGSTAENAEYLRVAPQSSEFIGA
Experiment: HTRF kinase activity assay, EGFR (L858R) single mutant
Assay endpoint: IC50 (nM)
Answer with a number only, understood to be in nM.

Q: Give the measured IC50 of [2H]C([2H])([2H])N(CCN(C)C)c1cc(OC)c(Nc2nccc(-c3cn4c5c(cccc35)CCC4)n2)cc1NC(=O)C=C .
Ans: 8.99

Q: And then [2H]C([2H])([2H])N(CCN(C)c1cc(OC)c(Nc2nccc(-c3cn4c5c(cccc35)CCC4)n2)cc1NC(=O)C=C)C([2H])([2H])[2H] , what is it?
Ans: 11.6

Q: And then [2H]C([2H])([2H])N(C)CCN(C)c1cc(OC)c(Nc2nccc(-c3cn4c5c(cccc35)CCC4)n2)cc1NC(=O)C=C , what is it?
Ans: 11.5

Q: And then [2H]C([2H])([2H])NCCN(C)c1cc(OC)c(Nc2nccc(-c3cn4c5c(cccc35)CCC4)n2)cc1NC(=O)C=C , what is it?
Ans: 14.1

====

Exercise: state measured IC50 for each of the compounds provided.
Biological target: Exon19 deletion EGFR in HCC827 cells (Homo sapiens, UniProt P00533, DEL746-750)
Construct: Assayed the endogenous p-EGFR of the cell lysate
Sequence (P00533 with tags, fused parts or gaps DEL746-750): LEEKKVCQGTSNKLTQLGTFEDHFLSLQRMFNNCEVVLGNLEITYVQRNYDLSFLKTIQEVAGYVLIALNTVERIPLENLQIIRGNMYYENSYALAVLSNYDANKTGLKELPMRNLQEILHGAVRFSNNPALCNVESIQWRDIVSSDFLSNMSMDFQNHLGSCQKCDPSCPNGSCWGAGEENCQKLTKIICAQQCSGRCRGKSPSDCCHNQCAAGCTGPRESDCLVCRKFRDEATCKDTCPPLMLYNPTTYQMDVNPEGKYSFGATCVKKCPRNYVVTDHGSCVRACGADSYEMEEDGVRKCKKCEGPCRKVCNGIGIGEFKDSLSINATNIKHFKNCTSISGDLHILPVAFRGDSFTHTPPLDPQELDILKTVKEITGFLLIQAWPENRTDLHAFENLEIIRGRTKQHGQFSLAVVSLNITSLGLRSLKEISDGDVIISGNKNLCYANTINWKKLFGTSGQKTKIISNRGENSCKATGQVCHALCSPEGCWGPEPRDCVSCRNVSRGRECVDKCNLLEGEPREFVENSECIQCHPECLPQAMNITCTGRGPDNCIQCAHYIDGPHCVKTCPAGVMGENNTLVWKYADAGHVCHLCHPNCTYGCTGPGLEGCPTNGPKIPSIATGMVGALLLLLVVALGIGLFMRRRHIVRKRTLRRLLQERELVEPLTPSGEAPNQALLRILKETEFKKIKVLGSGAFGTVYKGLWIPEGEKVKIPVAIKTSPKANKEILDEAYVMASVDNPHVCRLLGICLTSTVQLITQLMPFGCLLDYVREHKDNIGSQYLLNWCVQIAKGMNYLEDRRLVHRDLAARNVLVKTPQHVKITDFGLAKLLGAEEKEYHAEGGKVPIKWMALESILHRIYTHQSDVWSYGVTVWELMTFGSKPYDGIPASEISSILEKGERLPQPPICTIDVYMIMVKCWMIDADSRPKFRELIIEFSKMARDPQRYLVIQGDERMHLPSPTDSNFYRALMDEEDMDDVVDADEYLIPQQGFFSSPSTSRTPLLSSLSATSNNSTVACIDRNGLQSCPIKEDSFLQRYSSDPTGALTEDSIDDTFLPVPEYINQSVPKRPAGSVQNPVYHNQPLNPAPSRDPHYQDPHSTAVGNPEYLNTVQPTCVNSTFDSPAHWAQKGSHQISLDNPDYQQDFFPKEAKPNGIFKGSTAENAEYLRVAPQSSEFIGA
Assay: Exon19 deletion EGFR cell phosphorylation assay (HCC827)
Conditions: 2 h incubation, read-out: Cell level EGFR phosphorylation IC50, HCC827 (EGFR del19)

Q: Give the measured IC50 of [2H]C([2H])([2H])N(CCN(C)C)c1cc(OC)c(Nc2nccc(-c3cn4c5c(cccc35)CCC4)n2)cc1NC(=O)C=C .
Ans: 78.1 nM

Q: And then [2H]C([2H])([2H])N(C)CCN(C)c1cc(OC)c(Nc2nccc(-c3cn4c5c(cccc35)CCC4)n2)cc1NC(=O)C=C , what is it?
Ans: 101 nM

Q: And then [2H]C([2H])([2H])N(CCN(C)c1cc(OC)c(Nc2nccc(-c3cn4c5c(cccc35)CCC4)n2)cc1NC(=O)C=C)C([2H])([2H])[2H] , what is it?
Ans: 103 nM

====

Target: EGFR wild type (Homo sapiens)
Sequence (P00533 25-1210): as the sequence (P00533 25-1210) above
Assay endpoint: IC50 (nM)
Answer with a number only, understood to be in nM.

Q: Could you share what IC50 was measured for [2H]C([2H])([2H])N(CCN(C)c1cc(OC)c(Nc2nccc(-c3cn4c5c(cccc35)CCC4)n2)cc1NC(=O)C=C)C([2H])([2H])[2H] , tested on EGFR wild type (Homo sapiens)?
Ans: 27

Q: And then [2H]C([2H])([2H])N(C)CCN(C)c1cc(OC)c(Nc2nccc(-c3cn4c5c(cccc35)CCC4)n2)cc1NC(=O)C=C , what is it?
Ans: 38

Q: And then [2H]C([2H])([2H])N(CCN(C)C)c1cc(OC)c(Nc2nccc(-c3cn4c5c(cccc35)CCC4)n2)cc1NC(=O)C=C , what is it?
Ans: 15.7
